The measurements presented in this section are drawn from patent US6936628B2.

experiment.summary: Single dose IV toxicokinetics in rats
Assay type: in vivo
condition.info: both sexes, rat, plasma, IV 1, 5 and 7 mg/kg, across doses and sex
readout: Cmax

Q: Can you share its Cmax? I mean this compound: C/C(=C\c1csc(CN)n1)[C@@H]1C[C@@H]2O[C@]2(C)CCC[C@H](C)[C@H](O)[C@@H](C)C(=O)C(C)(C)[C@@H](O)CC(=O)O1 (relative stereo)
Ans: 183 to 3910 ng/mL

====

experiment.summary: in vitro
condition.info: human, Caco-2
readout: Papp at 200 μM (×10⁻⁶ cm/s)
Note: unit ×10⁻⁶ cm/s is implicit; provide only the numeric part.

Q: Could you tell me which Papp at 200 μM is on file for C/C(=C\c1csc(CN)n1)[C@@H]1C[C@@H]2O[C@]2(C)CCC[C@H](C)[C@H](O)[C@@H](C)C(=O)C(C)(C)[C@@H](O)CC(=O)O1 (relative stereo) [Compound A] ?
Ans: 6
